Assay: soluble fraction after stress (log2 fold change); higher = more stays soluble; pooled small domains, quantitative proteomics;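 note: 20 min heating vs room temperature control held 20 min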
Settings: stress: 75 degC
Measured Metric: soluble fraction (log2)

[[record]]
sequence_input = "HMTDSLELADLLRRAIITGEYKPRERLVEMELAQKYSVSRTPVREALKHLEALGLVKMERYKGAMVAD"
quantitative_readout = -0.911

[[record]]
sequence_input = "HMSVALSENIKTRRKALKMSQEYVAEQLDISRQAVAKWEAGKSEPTTENLVKLAALFEMSVSELVE"
quantitative_readout = -0.969

[[record]]
sequence_input = "HMKSISMANGNVQLRINGVLASSLEVAALSPEDIKRVEYHDNPGLRYGEGIDIVLDYITIKRT"
quantitative_readout = -0.754

[[record]]
sequence_input = "HMTLGEHILQYRTARGWSQEDLANALEVSRQSVSKWETDASTPELDKIVRLSEIFQVSIDELVTGKA"
quantitative_readout = -0.316


###

Experiment: soluble fraction after stress (log2 fold change); higher = more stays soluble; pooled small domains, quantitative proteomics
Conditions: stress: 75 degC
soluble fraction (log2) by entry:
Measured Metric: soluble fraction (log2)

[[record]]
sequence_input = "HMKTSTGSAMYLTLDLAEKYAGQAFTLVHKKADGTFEYLYATADVDGKVKFGPVYELSPFMLVKGQL"
quantitative_readout = -1.66

[[record]]
sequence_input = "HMEELTPLQKYVFDYESDISDEVDMRAIKGLENANDVYDYYANVRGWEGDPDLEDDLDNIYRQVKARFA"
quantitative_readout = 0.0255

[[record]]
sequence_input = "HMEREQPFAVTEAYRGMRLDRFLQAMLPRMSRAAIQDAIDNRVRLGSGRAAKASLRPAIGDTVFFGQRI"
quantitative_readout = -1.17

[[record]]
sequence_input = "HMGSFAADVGRMVRLGRAKRGISRRKLAADSGISERYLAQIEGGQGNPSVNVLKAIADAISVPVFELLPH"
quantitative_readout = -1.74


###

Test: soluble fraction after stress (log2 fold change); higher = more stays soluble; pooled small domains, quantitative proteomics
Conditions: stress: 75 degC
Grouping key: soluble fraction (log2). Bins: interval 1: < -2; interval 2: ≥ -2 and < -0.3; interval 3: ≥ -0.3

[[record]]
sequence_input = "HMAGITLHAEEGRVRIRSQSEGLVKVLDAMGREQASWPLRSKGWWFFLTEGWAPGTYFVKTESGETQRFLV"
category = "interval 3"

[[record]]
sequence_input = "HMVVGYRYVTNVANAVNFRQKPSASSTIITTIPYGTRIGYVEDANSEYARVKYDNMYGYVAKFYLSNYSPP"
category = "interval 1"

[[record]]
sequence_input = "HMTMKQVFIETDANVNQKIMLNEKEAHHLFDVLRTSDKETIRVVTNTSQVFLARVQQKPYIYLFDKMTVE"
category = "interval 1"

[[record]]
sequence_input = "HMVVANTAIKSELQNIVANENKQAPLSDQKIVDQLKQAGFDISRRTVVKYRDALGIPTSRNRKR"
category = "interval 3"

[[record]]
sequence_input = "HMTDFDPDGREKLIKVQKALHFNNHQLADALRVGQATFSSYIYGRVAAGVPVRVVKAAEDLLKNSKATV"
category = "interval 2"

[[record]]
sequence_input = "HMEKPYTPPANLNEIQSYEELSKAVQYYNKVKDAATTDADRLKAQQSIDTLEDMRKAWDAASST"
category = "interval 3"

[[record]]
sequence_input = "HMNFHLEHHIAELLYRSIRGELSDFERQELNQWRSDSPMHETLFMRLQDDEYIDEELGVFIK"
category = "interval 1"

[[record]]
sequence_input = "HMEASSTAIQAMIRRLIDDENPRKPLSDAKLADLLKSSGIPVARRTVAKYREAMNISASHERVRI"
category = "interval 2"

[[record]]
sequence_input = "HMHGEAVVVPNVKGLPMRQAENEIYKQSLKAVAIDSSYVKGMPPGAILEQNPAGGSKVKKGRTVYLTINMD"
category = "interval 3"

[[record]]
sequence_input = "HMDPGPVLISAQVLDDLEAIRRDGSSNMLDWPAVARLAEVMGMDRTAAWVRTHHREYSAGIFRGFASD"
category = "interval 2"

[[record]]
sequence_input = "HMRNQIRAVITPVPNQERYTVEMTIDDDAGNLLTLQMAAPDRQQAAEFAQRFQKHPEALYHAVLSVLL"
category = "interval 3"

[[record]]
sequence_input = "HMNTLLGLSNSFQDNKDLENANSISRRFISYRPRSEAELRIRLLKVFSHEIVLESVAQMYREGLLNDQRF"
category = "interval 1"

[[record]]
sequence_input = "HMQDFEQNLFDGKSIYDRMLSKFSLHNVDVKQLVAHFKRKDTEQFFADIGRGLITSAQMLGFLQT"
category = "interval 3"

[[record]]
sequence_input = "HMGVRLAPEVDRIPYGQMHPNLKKVKDLYEASYKAYVQALSSGNQALAKEKLEEFQSTKARYQRALSAYT"
category = "interval 3"

[[record]]
sequence_input = "HMAGTAMRATTAVNVRSGAGTNYSRIGLLQAGEQIQALSSKNGWTQVSYKGRTGYVASAYLASL"
category = "interval 1"

[[record]]
sequence_input = "HMRQYPSGVFKEEGVKAVYIHAGTPFLVIAAQYKIPLARLFEWNNLLPSTEARISQVIYLERPG"
category = "interval 1"

